These data points were gathered from patent US8871753B2.

tested_on: Recombinant Human Anaplastic Lymphoma Kinase (Homo sapiens, UniProt Q9UM73)
Construct: purchased Invitrogen, Carlsbad, Calif
Sequence (Q9UM73 19-1620): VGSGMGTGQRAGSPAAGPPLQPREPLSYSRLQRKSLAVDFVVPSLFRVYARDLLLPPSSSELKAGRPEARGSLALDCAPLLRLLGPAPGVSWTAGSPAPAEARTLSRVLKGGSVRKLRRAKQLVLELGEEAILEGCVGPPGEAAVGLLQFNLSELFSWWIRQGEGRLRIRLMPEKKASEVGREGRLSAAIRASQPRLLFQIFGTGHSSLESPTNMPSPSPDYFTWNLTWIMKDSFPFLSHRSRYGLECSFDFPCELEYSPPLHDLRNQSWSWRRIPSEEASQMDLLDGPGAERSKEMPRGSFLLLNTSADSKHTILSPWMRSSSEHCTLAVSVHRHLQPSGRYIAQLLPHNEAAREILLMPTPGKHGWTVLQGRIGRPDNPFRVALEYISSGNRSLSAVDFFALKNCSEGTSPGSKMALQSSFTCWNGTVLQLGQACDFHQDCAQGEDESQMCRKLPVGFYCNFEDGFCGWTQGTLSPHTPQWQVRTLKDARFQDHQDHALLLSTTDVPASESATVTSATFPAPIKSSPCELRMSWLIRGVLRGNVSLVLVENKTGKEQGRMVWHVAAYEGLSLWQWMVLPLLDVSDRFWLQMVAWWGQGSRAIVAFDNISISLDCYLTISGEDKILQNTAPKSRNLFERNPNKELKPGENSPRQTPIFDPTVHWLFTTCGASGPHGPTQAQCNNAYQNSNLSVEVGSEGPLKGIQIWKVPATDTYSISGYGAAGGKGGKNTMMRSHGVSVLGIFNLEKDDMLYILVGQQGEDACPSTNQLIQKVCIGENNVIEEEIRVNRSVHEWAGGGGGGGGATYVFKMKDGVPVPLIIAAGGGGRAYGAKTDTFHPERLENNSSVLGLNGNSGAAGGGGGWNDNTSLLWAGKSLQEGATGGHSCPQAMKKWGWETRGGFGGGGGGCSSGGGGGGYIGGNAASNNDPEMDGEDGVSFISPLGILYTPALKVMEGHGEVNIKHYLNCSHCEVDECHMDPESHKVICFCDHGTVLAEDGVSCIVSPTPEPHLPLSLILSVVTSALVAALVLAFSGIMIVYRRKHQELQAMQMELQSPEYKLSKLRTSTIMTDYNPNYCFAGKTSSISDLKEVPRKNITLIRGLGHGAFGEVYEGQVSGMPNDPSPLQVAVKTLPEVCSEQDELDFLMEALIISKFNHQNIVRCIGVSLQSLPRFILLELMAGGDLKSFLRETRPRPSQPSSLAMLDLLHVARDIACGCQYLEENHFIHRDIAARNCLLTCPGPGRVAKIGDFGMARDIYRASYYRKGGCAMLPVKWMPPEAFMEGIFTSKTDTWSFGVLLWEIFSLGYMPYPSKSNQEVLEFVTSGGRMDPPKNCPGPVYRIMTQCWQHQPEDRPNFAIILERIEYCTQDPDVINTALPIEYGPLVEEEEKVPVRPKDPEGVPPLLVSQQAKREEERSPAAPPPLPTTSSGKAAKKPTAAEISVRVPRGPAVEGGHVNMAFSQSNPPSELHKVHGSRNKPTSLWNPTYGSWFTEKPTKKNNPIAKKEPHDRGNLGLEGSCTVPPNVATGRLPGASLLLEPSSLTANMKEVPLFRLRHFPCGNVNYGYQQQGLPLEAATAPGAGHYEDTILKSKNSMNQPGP
assay_text: ALK HTRF kinase assay
Type: biochemical
measurement_setup: compound at 500 nM or 1 mM; 90 μM ATP
Counter-ions that a name gives are not always drawn.
observable: ALK % of inhibition at a concentration of 500 nM or 1 mM (%)
Numeric only. Scale: %

{"compound": "O=C(CN1CCNCC1)Nc1ccc2cc1CCc1cccc(c1)Nc1ncc(Cl)c(n1)N2 [Example A114, tris(trifluoroacetate)]", "obs_value": 19}
{"compound": "CN(C)C(=O)N1CCC(CC(=O)Nc2ccc3cc2CCc2cncc(c2)Nc2ncc(Cl)c(n2)N3)CC1 [Example A95, bis(trifluoroacetate)]", "obs_value": 18}
{"compound": "N#Cc1ccc(C(=O)N2CCC(CC(=O)Nc3ccc4cc3CCc3cncc(c3)Nc3ncc(Cl)c(n3)N4)CC2)cc1 [Example A190, bis(trifluoroacetate)]", "obs_value": 27}
{"compound": "Cc1ncoc1C(=O)N1CCC(CC(=O)Nc2ccc3cc2CCc2cncc(c2)Nc2ncc(Cl)c(n2)N3)CC1 [Example A132, bis(trifluoroacetate)]", "obs_value": 23}
{"compound": "CC(C)c1oncc1C(=O)N1CCC(CC(=O)Nc2ccc3cc2CCc2cncc(c2)Nc2ncc(Cl)c(n2)N3)CC1 [Example A218, bis(trifluoroacetate)]", "obs_value": 26}

Here's the next entry for you.
Given the compound O=C(COc1ccc2cc1CCc1cccc(c1)Nc1ncc(Cl)c(n1)N2)N1CCN(C(=O)Nc2ccccc2)CC1 [Example A13, trifluoroacetate] , what is its reported ALK % of inhibition at a concentration of 500 nM or 1 mM?
20

* * *

tested_on: Recombinant Human Anaplastic Lymphoma Kinase (Homo sapiens)
Construct: purchased Invitrogen, Carlsbad, Calif
assay_text: ALK HTRF kinase assay
Type: biochemical
measurement_setup: compound at 500 nM or 1 mM; 90 μM ATP
Structures can show the parent of a compound that is named as a salt.
ALK % of inhibition at a concentration of 500 nM or 1 mM reference
Numeric only. Scale: %

Form: Entry = NS(=O)(=O)N1CC[C@@H](C(=O)Nc2ccc3cc2CCc2cccc(c2)Nc2ncc(Cl)c(n2)N3)C1 [Example A74, trifluoroacetate] | System = Recombinant Human Anaplastic Lymphoma Kinase (Homo sapiens) | ALK % of inhibition at a concentration of 500 nM or 1 mM = ____
48

Now this one: O=C(CC1CCN(C(=O)Nc2ccccc2)C1)Nc1ccc2cc1CCc1cncc(c1)Nc1ncc(Cl)c(n1)N2 (stereo not drawn) [Example A92, bis(trifluoroacetate)]
61

Now this one: Cc1cc(N2CCC(CC(=O)Nc3ccc4cc3CCc3cncc(c3)Nc3ncc(Cl)c(n3)N4)CC2)no1 [Example A247, bis(trifluoroacetate)]
35

Now this one: O=C(CC1CCN(S(=O)(=O)c2ccco2)CC1)Nc1ccc2cc1CCc1cncc(c1)Nc1ncc(Cl)c(n1)N2 [Example A201, bis(trifluoroacetate)]
31

Now this one: O=C(CC1CCN(S(=O)(=O)c2ccccc2)CC1)Nc1ccc2cc1CCc1cccc(c1)Nc1ncc(Cl)c(n1)N2 [Example A205, trifluoroacetate]
23

Now this one: O=C(COc1ccc2cc1CCc1cccc(c1)Nc1ncc(Cl)c(n1)N2)N1CCN(C(=O)Nc2ccc(Cl)nc2)CC1
5

* * *

tested_on: TYK2 (Homo sapiens)
Sequence (P29597 whole entry): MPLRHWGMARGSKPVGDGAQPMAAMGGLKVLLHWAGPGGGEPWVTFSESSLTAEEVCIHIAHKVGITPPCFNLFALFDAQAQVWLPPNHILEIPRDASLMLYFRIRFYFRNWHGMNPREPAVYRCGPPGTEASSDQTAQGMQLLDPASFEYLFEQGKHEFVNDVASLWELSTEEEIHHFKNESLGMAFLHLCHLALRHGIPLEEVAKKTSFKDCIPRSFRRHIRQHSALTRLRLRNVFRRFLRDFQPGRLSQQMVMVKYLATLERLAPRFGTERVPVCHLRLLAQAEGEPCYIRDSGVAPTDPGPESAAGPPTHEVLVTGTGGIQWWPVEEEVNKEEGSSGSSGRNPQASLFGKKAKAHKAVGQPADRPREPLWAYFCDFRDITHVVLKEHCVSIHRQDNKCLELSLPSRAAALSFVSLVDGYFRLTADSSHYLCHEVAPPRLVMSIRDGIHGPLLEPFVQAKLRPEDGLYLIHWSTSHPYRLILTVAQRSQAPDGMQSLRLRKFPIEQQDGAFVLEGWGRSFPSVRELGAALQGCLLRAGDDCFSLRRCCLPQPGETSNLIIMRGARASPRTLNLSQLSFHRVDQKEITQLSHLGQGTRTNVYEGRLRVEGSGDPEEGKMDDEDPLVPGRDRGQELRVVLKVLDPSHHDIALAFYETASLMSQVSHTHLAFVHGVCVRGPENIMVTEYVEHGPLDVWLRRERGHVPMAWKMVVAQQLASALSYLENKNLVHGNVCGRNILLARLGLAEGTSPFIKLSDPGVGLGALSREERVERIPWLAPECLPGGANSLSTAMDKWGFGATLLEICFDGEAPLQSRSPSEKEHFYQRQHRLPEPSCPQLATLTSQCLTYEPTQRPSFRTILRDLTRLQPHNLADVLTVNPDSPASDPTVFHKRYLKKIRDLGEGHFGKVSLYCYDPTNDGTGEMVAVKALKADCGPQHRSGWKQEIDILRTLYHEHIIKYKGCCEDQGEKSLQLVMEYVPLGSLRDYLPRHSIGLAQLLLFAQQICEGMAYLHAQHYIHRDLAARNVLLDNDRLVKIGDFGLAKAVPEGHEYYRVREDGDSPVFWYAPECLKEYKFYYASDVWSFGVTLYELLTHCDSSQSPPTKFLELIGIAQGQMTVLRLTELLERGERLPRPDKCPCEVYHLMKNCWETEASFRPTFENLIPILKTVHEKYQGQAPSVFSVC
assay_text: TYK2 kinase inhibition (Table A1)
Format: biochemical
Structures can show the parent of a compound that is named as a salt.
observable: pIC50
Lab note: report pIC50 as minus log10 of the concentration in molar units, number only.

Use the examples below as a reference point.
{"compound": "O=S1(=O)Nc2cccc(c2)Nc2nc(ncc2Cl)Nc2cccc1c2 [Example C6, trifluoroacetate]", "pIC50": 6.62}
{"compound": "O=C(Cc1ccsc1)Nc1ccc2cc1CCc1cccc(c1)Nc1ncc(Cl)c(n1)N2 [Example C32, trifluoroacetate]", "pIC50": 7.36}
{"compound": "Clc1cnc2nc1Nc1cccc(c1)/C=C\\c1cc(ccn1)N2", "pIC50": 8.24}

Given the compound O=C(Nc1ccc2cc1CCc1cccc(c1)Nc1ncc(Cl)c(n1)N2)C1CCN(S(=O)(=O)c2ccccc2)CC1 [Example A42, trifluoroacetate] , what is its reported pIC50?
6.74

Now this one: O=C(CC1CCN(C(=O)c2ncco2)CC1)Nc1ccc2cc1CCc1cncc(c1)Nc1ncc(Cl)c(n1)N2 [Example A139, bis(trifluoroacetate)]
8.47

Now this one: CC(C)S(=O)(=O)N1CCC(CC(=O)Nc2ccc3cc2CCc2cccc(c2)Nc2ncc(Cl)c(n2)N3)CC1 [Example A82, trifluoroacetate]
7.89
